Target: T1, human ferroportin (SLC40A1) fused in frame with GFP, stably expressed on HEK293 cells (human, UniProt Q9NP59 1-571)
T1 sequence (looked up): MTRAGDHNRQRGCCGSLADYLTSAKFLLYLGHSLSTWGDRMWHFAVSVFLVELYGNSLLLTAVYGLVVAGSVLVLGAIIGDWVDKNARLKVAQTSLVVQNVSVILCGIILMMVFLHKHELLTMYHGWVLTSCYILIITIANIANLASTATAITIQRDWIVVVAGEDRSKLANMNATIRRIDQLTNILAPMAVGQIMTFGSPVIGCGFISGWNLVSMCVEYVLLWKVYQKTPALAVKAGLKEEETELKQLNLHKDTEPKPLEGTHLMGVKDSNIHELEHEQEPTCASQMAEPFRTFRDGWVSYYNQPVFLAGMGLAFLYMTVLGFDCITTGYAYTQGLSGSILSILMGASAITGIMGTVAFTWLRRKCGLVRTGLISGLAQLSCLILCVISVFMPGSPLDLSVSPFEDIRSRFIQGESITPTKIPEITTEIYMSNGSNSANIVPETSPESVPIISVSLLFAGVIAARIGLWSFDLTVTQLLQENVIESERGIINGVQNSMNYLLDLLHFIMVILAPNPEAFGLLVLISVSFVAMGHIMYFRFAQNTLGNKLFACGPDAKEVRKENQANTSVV
Assay: cell-based or functional assay
* marks the point of attachment. Isovaleryl = CC(C)CC(=O)*
Listing of entries alongside the reported EC50 (nM) (n > 3), ferroportin internalization/degradation assay.
Write the number in nM without appending the unit.

Before answering, review these 4 worked examples.
BINDER	UNITS OF MEASURE	ASSAY RESULT
DTHFPCIKF (N-terminal isovaleric acid on each subunit; the two subunits are joined at their C-termini through a [Lys]-NH2 linker) [(Isovaleric acid-DTHFPCIKF)2[Lys]-NH2]	nM	30
Isovaleryl-DTHFPCIRFK-{K(γGlu-Palm)-NH2} (also: dimer: two subunits joined at C-termini through a Lys linker) [(Isovaleric acid-DTHFPCIRF)2[Lys]-K(iso-Glu-Palm)-NH2]	nM	4
DTHFPCIKF (N-terminal isovaleric acid on each subunit; the two subunits are joined at their C-termini through a [Lys] linker, which is followed by Lys(Palm)-NH2) [(Isovaleric acid-DTHFPCIKF)2[Lys]-Lys(Palm)-NH2]	nM	16
DTHFPCIKF (N-terminal isovaleric acid on each subunit; the two subunits are joined at their C-termini through a [Lys] linker, which is followed by K(iso-Glu-Palm)-NH2) [(isovaleric acid-DTHFPCIKF)2[Lys]K(iso-Glu-Palm)-NH2]	nM	14

Now for a further binder.
If you can, please state the reported EC50 (nM) (n > 3), ferroportin internalization/degradation assay value of DTHFPCIKF (N-terminal isobutyric acid on each subunit; the two subunits are joined at their C-termini through a [Lys] linker, which is followed by K(iso-Glu-Palm)-NH2) [(isobutyric acid-DTHFPCIKF)2[Lys]K(iso-Glu-Palm)-NH2] .
24
